Data provenance is paper PMC8245654.

Biological target: SlCOI1-SlJAZ1 (Solanum lycopersicum, UniProt A0A3Q7H988+Q6TDU2)
Sequence (Q6TDU2 1-603): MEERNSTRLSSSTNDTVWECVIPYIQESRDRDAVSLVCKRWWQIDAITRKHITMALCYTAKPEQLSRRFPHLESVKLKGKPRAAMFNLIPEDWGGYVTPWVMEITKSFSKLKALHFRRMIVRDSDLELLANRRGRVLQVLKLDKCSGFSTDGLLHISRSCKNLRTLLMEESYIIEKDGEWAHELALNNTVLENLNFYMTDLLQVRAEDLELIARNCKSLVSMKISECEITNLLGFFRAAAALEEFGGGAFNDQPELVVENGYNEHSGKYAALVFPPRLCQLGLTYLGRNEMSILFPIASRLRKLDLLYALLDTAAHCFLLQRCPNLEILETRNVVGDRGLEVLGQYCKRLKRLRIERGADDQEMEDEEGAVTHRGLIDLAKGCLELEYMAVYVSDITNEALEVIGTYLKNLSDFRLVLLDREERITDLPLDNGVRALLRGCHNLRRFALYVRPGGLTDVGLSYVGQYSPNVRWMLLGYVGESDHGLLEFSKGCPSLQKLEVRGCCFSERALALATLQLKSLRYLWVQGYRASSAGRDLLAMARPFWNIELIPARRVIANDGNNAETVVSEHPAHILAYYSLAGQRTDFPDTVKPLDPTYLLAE
Sequence (A0A3Q7H988 159-185): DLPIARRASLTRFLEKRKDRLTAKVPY
Sequence (Q39255 1-160 partner): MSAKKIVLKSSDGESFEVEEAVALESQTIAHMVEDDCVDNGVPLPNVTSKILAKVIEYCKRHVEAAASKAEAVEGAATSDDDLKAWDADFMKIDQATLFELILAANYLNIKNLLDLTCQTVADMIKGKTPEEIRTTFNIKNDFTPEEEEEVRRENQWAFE
Assay: AlphaScreen assay, GST-SlCOI1 and Fl-SlJAZP1
Type: binding
Details: calculated from AlphaScreen; 5 nM SlCOI1, 10 nM Fl-SlJAZP1; read-out: Kd
Experimental Readout: Kd (nM)
Answers are plain numbers, in nM.

Enquiry: Can you share its Kd? I mean this compound: CC/C=C\C[C@@H]1C(=O)CC[C@@H]1CC(=O)N[C@H](C(=O)O)[C@@H](C)CC [JA-Ile, (+)-7-iso-Jasmonoyl-L-isoleucine]
Return: 9.2

* * *

target: SlCOI1-SlJAZ7 (Solanum lycopersicum, UniProt Q6TDU2+Q9M723); experiment: AlphaScreen assay, GST-SlCOI1 and Fl-SlJAZP7; assay type: binding; settings: calculated from AlphaScreen; 5 nM SlCOI1, 10 nM Fl-SlJAZP7; read-out: Kd
Experimental Readout: pKd
One number for each entry, as −log10 of the molar value.

Enquiry: Notebook: pull reported pKd for SlCOI1-SlJAZ7 (Solanum lycopersicum, UniProt Q6TDU2+Q9M723), entry CC/C=C\C[C@@H]1C(=O)CC[C@@H]1CC(=O)N[C@H](C(=O)O)[C@@H](C)CC [JA-Ile, (+)-7-iso-Jasmonoyl-L-isoleucine]
Return: 7.79

* * *

For each record, write down the corresponding Kd.
target: SlCOI1-SlJAZ11; assay: AlphaScreen assay, GST-SlCOI1 and Fl-SlJAZP11; settings: calculated from AlphaScreen; 5 nM SlCOI1, 10 nM Fl-SlJAZP11
Numbers only, in nM.

>>> obs_value("CC/C=C\\C[C@@H]1C(=O)CC[C@@H]1CC(=O)N[C@H](C(=O)O)[C@@H](C)CC [JA-Ile, (+)-7-iso-Jasmonoyl-L-isoleucine]")
430

Enquiry: Can you share its Kd? I mean this compound: CC[C@H]1C=C(C(=O)N[C@@]2(C(=O)O)C[C@@H]2CC)[C@H]2CCC(=O)[C@H]2C1
Return: 62.4

* * *

molecular target: SlCOI1-SlJAZ8; assay: AlphaScreen assay, GST-SlCOI1 and Fl-SlJAZP8; conditions: calculated from AlphaScreen; 5 nM SlCOI1, 10 nM Fl-SlJAZP8
Experimental Readout: Kd (nM)
Give bare numbers, in nM.

>>> obs_value("CC/C=C\\C[C@@H]1C(=O)CC[C@@H]1CC(=O)N[C@H](C(=O)O)[C@@H](C)CC [JA-Ile, (+)-7-iso-Jasmonoyl-L-isoleucine]")
2.2

Enquiry: Notebook: pull reported Kd for SlCOI1-SlJAZ8, entry CC[C@H]1C=C(C(=O)N[C@@]2(C(=O)O)C[C@@H]2CC)[C@H]2CCC(=O)[C@H]2C1
Return: 0.39

* * *

molecular target: SlCOI1-SlJAZ5 (Solanum lycopersicum, UniProt A0A3Q7FUH8+Q6TDU2); experiment: AlphaScreen assay, GST-SlCOI1 and Fl-SlJAZP5; assay type: binding; conditions: calculated from AlphaScreen; 5 nM SlCOI1, 10 nM Fl-SlJAZP5
Experimental Readout: pKd
Give bare numbers, as −log10 of the molar value.

Enquiry: Can you share its pKd? I mean this compound: CC[C@H]1C=C(C(=O)N[C@@]2(C(=O)O)C[C@@H]2CC)[C@H]2CCC(=O)[C@H]2C1
Return: 9.19
